tested on: Mycobacterium tuberculosis Erdman (autoluminescent); experiment: AUC25, normalised area under dose response up to IC25 (three-drug combination) (fraction (0-1)); higher = more potent at low dose; conditions: in vitro model: cholesterol 0.05 mM; time point: constant (~7 days, model-specific)
MEASURED_QUANTITY: AUC25
Numbers only.

Query: May I ask what AUC25 has been recorded for NC(=O)c1cnccn1 [pyrazinamide] + CO[C@H]1/C=C/O[C@@]2(C)Oc3c(C)c(O)c4c(O)c(c(/C=N/N5CCN(C6CCCC6)CC5)c(O)c4c3C2=O)NC(=O)/C(C)=C\C=C\[C@H](C)[C@H](O)[C@@H](C)[C@@H](O)[C@@H](C)[C@H](OC(C)=O)[C@@H]1C [rifapentine] + CO[C@H]1/C=C/O[C@@]2(C)Oc3c(C)c(O)c4c(O)c(c(/C=N/N5CCN(C)CC5)c(O)c4c3C2=O)NC(=O)/C(C)=C\C=C\[C@H](C)[C@H](O)[C@@H](C)[C@@H](O)[C@@H](C)[C@H](OC(C)=O)[C@@H]1C [rifampicin] ?
Reply: 0.115

Field: next compound
Query: // returns reported AUC25 for input COc1nc2ccc(Br)cc2cc1[C@@H](c1ccccc1)[C@@](O)(CCN(C)C)c1cccc2ccccc12 [bedaquiline] + NC(=O)c1cnccn1 [pyrazinamide] + CO[C@H]1/C=C/O[C@@]2(C)Oc3c(C)c(O)c4c(O)c(c(/C=N/N5CCN(C6CCCC6)CC5)c(O)c4c3C2=O)NC(=O)/C(C)=C\C=C\[C@H](C)[C@H](O)[C@@H](C)[C@@H](O)[C@@H](C)[C@H](OC(C)=O)[C@@H]1C [rifapentine]
Reply: 0.113

====

test system: Mycobacterium tuberculosis Erdman (autoluminescent); experiment: GRinf, maximum normalised growth rate inhibition (three-drug combination) (unitless (-1 to 1)); higher = less effect (negative = killing); conditions: in vitro model: butyrate; time point: terminal (~4-5 doublings, model-specific)
MEASURED_QUANTITY: GRinf
Give bare numbers.

Query: Entry under review: COc1c(N2C[C@@H]3CCCN[C@@H]3C2)c(F)cc2c(=O)c(C(=O)O)cn(C3CC3)c12 [moxifloxacin] + O=[N+]([O-])c1cn2c(n1)OC[C@@H](OCc1ccc(OC(F)(F)F)cc1)C2 [pretomanid] + CO[C@H]1/C=C/O[C@@]2(C)Oc3c(C)c(O)c4c(O)c(c(/C=N/N5CCN(C6CCCC6)CC5)c(O)c4c3C2=O)NC(=O)/C(C)=C\C=C\[C@H](C)[C@H](O)[C@@H](C)[C@@H](O)[C@@H](C)[C@H](OC(C)=O)[C@@H]1C [rifapentine] . Reported GRinf?
Reply: -0.00653

====

test system: Mycobacterium tuberculosis Erdman (autoluminescent); assay: total FIC50 (Loewe) at 50% inhibition, three-drug combination (log2); higher = more antagonistic; settings: in vitro model: valerate; time point: terminal (~4-5 doublings, model-specific)
MEASURED_QUANTITY: total FIC50
One number for each entry.

Query: Look up total FIC50: CC[C@@H](CO)NCCN[C@@H](CC)CO [ethambutol] + COc1c(N2C[C@@H]3CCCN[C@@H]3C2)c(F)cc2c(=O)c(C(=O)O)cn(C3CC3)c12 [moxifloxacin] + O=[N+]([O-])c1cn2c(n1)OC[C@@H](OCc1ccc(OC(F)(F)F)cc1)C2 [pretomanid]
Reply: 0.26
